# credit: paper PMC6270409

observed_property: melting point

CC(=O)OC[C@H]1O[C@@H](Oc2cccc(F)c2C)[C@H](OC(C)=O)[C@@H](OC(C)=O)[C@H]1OC(C)=O [Compound 10b]; 127 to 129 °C
CC(=O)OC[C@H]1O[C@@H](Oc2cccc(F)c2C)[C@H](OC(C)=O)[C@@H](OC(C)=O)[C@@H]1OC(C)=O [Compound 10a]; 127 to 129 °C

Kindly review the next molecule as well.
Challenge: I would be grateful if you could share the reported melting point for COC(=O)c1ccc(N)c(O[C@@H]2O[C@H](COC(C)=O)[C@@H](OC(C)=O)[C@H](OC(C)=O)[C@H]2OC(C)=O)c1 [Compound 4a] .
Response given: 126 to 128 °C

###

Give measured IC50 for each item. Keep answers brief.
Tested on: influenza A/Hanfang/359/95(H3N2)
method_notes: microbe, parasite or virus in culture
Format: cell-based, influenza A virus
condition_details: Influenza A virus, H3N2, MDCK

Example cases with answers are listed next.
COC(=O)c1ccc(F)c(O)c1 [Compound 1, Methyl 4-fluoro-3-hydroxybenzoate]; > 1180 µM
CC(=O)OC[C@H]1O[C@@H](Oc2ncccc2F)[C@H](OC(C)=O)[C@@H](OC(C)=O)[C@@H]1OC(C)=O [Compound 12a]; > 50.1 µM
COC(=O)c1c(F)cccc1O[C@@H]1O[C@H](COC(C)=O)[C@H](OC(C)=O)[C@H](OC(C)=O)[C@H]1OC(C)=O; > 133 µM

For the 4 molecules below, give their IC50 values.
1. COC(=O)c1ccc(N)c(O[C@@H]2O[C@H](COC(C)=O)[C@@H](OC(C)=O)[C@H](OC(C)=O)[C@H]2OC(C)=O)c1
2. OCc1ccc(F)c(O[C@@H]2O[C@H](CO)[C@@H](O)[C@H](O)[C@H]2O)c1 [Compound 14a]
3. COC(=O)c1c(F)cccc1O[C@@H]1O[C@H](COC(C)=O)[C@@H](OC(C)=O)[C@H](OC(C)=O)[C@H]1OC(C)=O
4. COC(=O)c1c(OC)cc(O[C@@H]2O[C@H](COC(C)=O)[C@@H](OC(C)=O)[C@H](OC(C)=O)[C@H]2OC(C)=O)cc1OC

Response given:
1: > 134 µM; 2: > 657 µM; 3: > 44.4 µM; 4: > 13.7 µM
